# assayed system: T1, human interleukin 13 receptor subunit alpha 2 (IL-13RA2) (human, UniProt Q14627 27-380)
# T1 construct: whole, on cells; also called IL-13Rα2; CD213A2
# T1 sequence (looked up): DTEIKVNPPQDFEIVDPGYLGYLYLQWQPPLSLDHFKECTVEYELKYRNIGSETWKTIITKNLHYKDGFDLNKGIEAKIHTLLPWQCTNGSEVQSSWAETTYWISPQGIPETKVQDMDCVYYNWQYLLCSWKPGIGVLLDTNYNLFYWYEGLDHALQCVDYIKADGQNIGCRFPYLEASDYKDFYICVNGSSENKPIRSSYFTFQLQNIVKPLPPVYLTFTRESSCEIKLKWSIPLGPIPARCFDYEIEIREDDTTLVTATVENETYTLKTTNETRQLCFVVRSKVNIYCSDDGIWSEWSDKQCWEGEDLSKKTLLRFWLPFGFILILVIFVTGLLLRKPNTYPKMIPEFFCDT
# experimental details: FACS on A375 cells
As shown below, each of these binders has a reported pEC50 value.
Answer as the number alone; pEC50 is minus log10 of concentration in mol/L.

Worked set:
binder: 72B4H4 H3L1 hIgG1 (antibody, V domains shown, humanized, hIgG1) VH: QVQLVQSGAEVVKPGASVKLSCKASGYTFTNYWMNWVKQAPGQGLEWIGRIDAYAGETHYNQKFKDRATLTVDKSTSTVYMELSSLRSEDTAVYYCARGYGDAYGMDHWGQGTLVTVSS VL: DIQMTQSPSSLSASVGDRVTITCRASESVDNYGISFMNWYQQKPGKAPKLLIYAASRQGSGVPSRFSGSGSGTDFTLTISSLQPEDFATYYCQQSKEVPWTFGQGTKVEIK
pEC50: 8.94
--
binder: 72B4H4 H2L1 hIgG1 (antibody, V domains shown, humanized, hIgG1) VH: QVQLVQSGAEVVKPGASVKVSCKASGYTFTNYWMNWVRQAPGQGLEWIGRIDAYAGETHYNQKFKDRVTMTVDTSTSTVYMELSSLRSEDTAVYYCARGYGDAYGMDHWGQGTLVTVSS VL: DIQMTQSPSSLSASVGDRVTITCRASESVDNYGISFMNWYQQKPGKAPKLLIYAASRQGSGVPSRFSGSGSGTDFTLTISSLQPEDFATYYCQQSKEVPWTFGQGTKVEIK
pEC50: 8.56
--
binder: 61H8C1 H1L1 hIgG1 (antibody, V domains shown, humanized, hIgG1) VH: QVQLVQSGAEVKKPGASVKVSCKASGYTFTSYWTQWVRQAPGQGLEWMGAIYPGDDDTSYNQKFKGRVTMTRDTSTSTVYMELSSLRSEDTAVYYCARGATLLRPFPYWGQGTLVTVSS VL: DIQMTQSPSSLSASVGDRVTITCKASQDVSTAVAWYQQKPGKAPKLLIYSASYRYTGVPSRFSGSGSGTDFTLTISSLQPEDFATYYCQQHYSIPPTFGQGTKLEIK
pEC50: 9.85
--
binder: 61H8C1 H2L4 hIgG1 (antibody, V domains shown, humanized, hIgG1) VH: QVQLVQSGAEVAKPGASVKVSCKASGYTFTSYWTQWIRQAPGQGLEGMGAIYPGDDDTSYNQKFKGRVTMTADTSTSTVYMELSSLRSEDTAVYYCARGATLLRPFPYWGQGTLVTVSS VL: DIVMTQSPSSLSTSVGDRVTITCKASQDVSTAVAWYQQKPGKSPKLLIYSASYRYTGVPDRFTGSGSGTDFTFTISSVQPEDFATYSCQQHYSIPPTFGGGTKLEIK
pEC50: 9.74

Let us move to another entry and its pEC50.
For record 57F8H3F1 H2L4 hIgG1 (antibody, V domains shown, humanized, hIgG1) VH: QVQLVQSGAEVVKPGASVKVSCKASGYTFTNYWMNWVRQAPGQGLEWIGRIDAYETETHYNQKFRDRVTMTVDTSTSTVYMELSSLRSEDTAVYYCARGYGHYYGVDYWGQGTLVTVSS VL: DIVLTQSPSSLSASVGDRATITCRASENVGNFGISFVNWFQQKPGKPPKLLIYAASNLGSGDPARFSGSGSGTDFTLTISSLQPEDFATYFCQQSKGVPWTFGGGTKLEIK the listed pEC50 is 9.00
